Test system UniProt P00791, pIC50 listed for each of the molecules.
Sequence (P00791 whole entry): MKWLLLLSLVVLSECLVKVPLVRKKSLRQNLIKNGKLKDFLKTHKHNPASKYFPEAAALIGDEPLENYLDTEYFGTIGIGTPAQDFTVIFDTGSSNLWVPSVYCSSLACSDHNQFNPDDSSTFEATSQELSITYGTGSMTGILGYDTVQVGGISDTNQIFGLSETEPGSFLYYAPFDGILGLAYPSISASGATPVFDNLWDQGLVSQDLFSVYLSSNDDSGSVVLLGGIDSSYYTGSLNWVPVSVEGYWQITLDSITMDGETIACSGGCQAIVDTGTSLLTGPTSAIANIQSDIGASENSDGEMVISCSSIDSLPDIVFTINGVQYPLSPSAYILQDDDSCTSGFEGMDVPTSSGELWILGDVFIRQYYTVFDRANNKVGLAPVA
pIC50: −log10 of the molar value.

Recorded pIC50, per entry:
>>> assay_result("O=C(Cc1ccccc1)N(CCNCCN(Cc1ccccc1)C(=O)Cc1ccccc1)Cc1ccccc1 [carboxamide, 12a]")
"< 3.60"
>>> assay_result("O=C(Cc1ccccc1)N(CCCNCCCN(Cc1ccccc1)C(=O)Cc1ccccc1)Cc1ccccc1 [carboxamide, 12c]")
"< 3.60"
>>> assay_result("Nc1ccc(S(=O)(=O)N(CCCNCCN(Cc2ccccc2)S(=O)(=O)c2ccc(N)cc2)Cc2ccccc2)cc1")
"< 3.60"

Observed pIC50 on UniProt P00791 for O=S(=O)(c1ccccc1)N(CCCNCCCN(Cc1ccccc1)S(=O)(=O)c1ccccc1)Cc1ccccc1 , please. < 3.60

Return pIC50 measured with UniProt P00791 given this molecule: O=C(Cc1ccccc1)N(CCCNCCN(Cc1ccccc1)C(=O)Cc1ccccc1)Cc1ccccc1 [carboxamide, 12b] < 3.60
